# System: A549 cells
# ASSAY_METHOD_TEXT: Cell proliferation (cell confluence), IncuCyte Live-Cell Analysis System
# Type: cell-based
# CONDITION_CONTEXT: Homo sapiens, A549, read-out: IC50, inhibition of A549 cell proliferation
MEASURE: IC50 (µM)
Report as a plain number; the unit µM is understood.

// returns reported IC50 for input O=C1C(OCCOCCOCCOCCOCC[P+](c2ccccc2)(c2ccccc2)c2ccccc2)=C([C@H]2CC[C@H](c3ccc(Cl)cc3)CC2)C(=O)c2ccccc21.[Br-] 0.11

----------
# TGT: mitochondrial complex III (MiaPaCa-2 cells) (Homo sapiens, UniProt P00156)
# Sequence (P00156 whole entry): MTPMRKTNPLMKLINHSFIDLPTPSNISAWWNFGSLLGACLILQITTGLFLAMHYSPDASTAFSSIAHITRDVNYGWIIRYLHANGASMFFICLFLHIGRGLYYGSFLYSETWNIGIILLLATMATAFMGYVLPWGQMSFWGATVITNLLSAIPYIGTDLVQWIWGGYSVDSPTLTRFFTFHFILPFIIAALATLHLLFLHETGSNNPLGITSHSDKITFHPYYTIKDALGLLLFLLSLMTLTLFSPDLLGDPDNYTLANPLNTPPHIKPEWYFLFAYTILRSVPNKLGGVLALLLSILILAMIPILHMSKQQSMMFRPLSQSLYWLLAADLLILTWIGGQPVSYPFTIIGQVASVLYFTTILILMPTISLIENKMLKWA
# Sequence (P47985 whole entry partner): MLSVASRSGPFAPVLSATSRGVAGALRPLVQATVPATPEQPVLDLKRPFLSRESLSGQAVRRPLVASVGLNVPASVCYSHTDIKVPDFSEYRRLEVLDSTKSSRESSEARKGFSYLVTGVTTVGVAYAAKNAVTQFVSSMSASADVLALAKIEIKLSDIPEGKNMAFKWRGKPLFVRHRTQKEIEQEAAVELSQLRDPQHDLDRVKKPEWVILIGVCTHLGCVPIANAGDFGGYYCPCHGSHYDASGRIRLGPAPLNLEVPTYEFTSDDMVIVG
# ASSAY_METHOD_TEXT: Complex III-dependent oxygen consumption in permeabilized cells, Seahorse XF-96
# Assay type: cell-based
# CONDITION_CONTEXT: 0.5 µM
Reported Complex III activity (OCR, % of control) values are given for each entry in this list.

Sample answers from the record:
{"columns": ["MOLECULE_SMILES", "OBSERVED"],
 "data": [
  ["O=C1C(OCCOCC[P+](c2ccccc2)(c2ccccc2)c2ccccc2)=C([C@H]2CC[C@H](c3ccc(Cl)cc3)CC2)C(=O)c2ccccc21.[Br-]", "88.9 % of control"],
  ["O=C1C(OCCOCCOCCOCCOCC[P+](c2ccccc2)(c2ccccc2)c2ccccc2)=C([C@H]2CC[C@H](c3ccc(Cl)cc3)CC2)C(=O)c2ccccc21.[Br-]", "38.4 % of control"],
  ["O=C1C(OCCOCCOCCOCCOCCOCCOCCOCCOCC[P+](c2ccccc2)(c2ccccc2)c2ccccc2)=C([C@H]2CC[C@H](c3ccc(Cl)cc3)CC2)C(=O)c2ccccc21.[Br-]", "48.1 % of control"]
]}

Here is another molecule to look at.
// returns reported Complex III activity (OCR, % of control) for input O=C1C(OCCOCCOCCOCC[P+](c2ccccc2)(c2ccccc2)c2ccccc2)=C([C@H]2CC[C@H](c3ccc(Cl)cc3)CC2)C(=O)c2ccccc21.[Br-] 92.4 % of control

----------
Reported pIC50 values are given for each entry in this list.
# TGT: mitochondrial complex III (MiaPaCa-2 cells) (Homo sapiens, UniProt P00156)
# ASSAY_METHOD_TEXT: Complex III-dependent oxygen consumption in permeabilized cells, Seahorse XF-96
# CONDITION_CONTEXT: MiaPaCa-2 cells; 24 h treatment; antimycin A-inhibitable OCR; read-out: IC50, complex III-induced oxygen consumption (Complex III activity)
Note: pIC50 values are expressed as the negative base-10 logarithm of concentration in M.

// returns reported pIC50 for input O=C1C(OCCOCCOCCOCCOCCOCCOCCOCCOCC[P+](c2ccccc2)(c2ccccc2)c2ccccc2)=C([C@H]2CC[C@H](c3ccc(Cl)cc3)CC2)C(=O)c2ccccc21.[Br-] 6.30

----------
# Test system: MiaPaCa-2 cells
# ASSAY_METHOD_TEXT: Cell proliferation (cell confluence), IncuCyte Live-Cell Analysis System
# Type: cell-based, human
# CONDITION_CONTEXT: Homo sapiens, MIA PaCa-2; MiaPaCa-2 cells; inhibitor alone; control ~90% confluence; read-out: IC50 (cell proliferation) without Mito-PEG5-ATO
Reported IC50 values are given for each entry in this list.
Report as a plain number; the unit µM is understood.

Sample answers from the record:
{"columns": ["COMPOUND", "MEASURE", "OBSERVED"],
 "data": [
  ["O=C(Cc1cccc(OC(F)(F)F)c1)Nc1ccc(CCCCc2nnc(NC(=O)Cc3ccccn3)s2)nn1 [CB-839, Telaglenastat, reference compound]", "IC50", 19],
  ["CCOC(=O)Oc1c(OC)cc(C(=O)O[C@@H]2C[C@@H]3CN4CCc5c([nH]c6cc(OC)ccc56)[C@H]4C[C@@H]3[C@H](C(=O)OC)[C@H]2OC)cc1OC", "IC50", 8]
]}

// returns reported IC50 for input O=C(O)CCCCC(CCSCc1ccccc1)SCc1ccccc1 (stereo not drawn) [CPI-613, reference compound] 197

----------
Reported IC50 values are given for each entry in this list.
# Tested on: mitochondrial respiration (OCR) in intact MiaPaCa-2 cells
# ASSAY_METHOD_TEXT: Intact cell mitochondrial respiration (basal OCR), Seahorse XF-96
# Assay type: cell-based, human
# CONDITION_CONTEXT: Homo sapiens, MIA PaCa-2; MiaPaCa-2 cells; 24 h treatment; read-out: IC50, inhibition of basal OCR in intact cells
Report as a plain number; the unit µM is understood.

{"columns": ["MOLECULE_SMILES", "UNIT_NAME", "IC50"],
 "data": [
  ["O=C1C(O)=C([C@H]2CC[C@H](c3ccc(Cl)cc3)CC2)C(=O)c2ccccc21", "µM", 6.5]
]}

Here is another molecule to look at.
// returns reported IC50 for input COCCOCCOCCOCCOC1=C([C@H]2CC[C@H](c3ccc(Cl)cc3)CC2)C(=O)c2ccccc2C1=O 22

----------
# System: mitochondrial respiration (OCR) in intact MiaPaCa-2 cells
# ASSAY_METHOD_TEXT: Intact cell mitochondrial respiration (basal OCR), Seahorse XF-96
# Assay type: cell-based, human
# CONDITION_CONTEXT: Homo sapiens, MIA PaCa-2, 24 h, read-out: IC50, inhibition of basal OCR in intact cells
MEASURE: pIC50
Note: pIC50 values are expressed as the negative base-10 logarithm of concentration in M.

Sample answers from the record:
{"columns": ["COMPOUND", "pIC50"],
 "data": [
  ["O=C1C(OCCOCCOCCOCCOCCOCCOCCOCCOCC[P+](c2ccccc2)(c2ccccc2)c2ccccc2)=C([C@H]2CC[C@H](c3ccc(Cl)cc3)CC2)C(=O)c2ccccc21.[Br-] [Mito-PEG9-ATO]", 6.96],
  ["O=C1C(OCCOCCOCCOCCOCC[P+](c2ccccc2)(c2ccccc2)c2ccccc2)=C([C@H]2CC[C@H](c3ccc(Cl)cc3)CC2)C(=O)c2ccccc21.[Br-] [Mito-PEG5-ATO]", 7.24]
]}

// returns reported pIC50 for input O=C1C(OCCOCC[P+](c2ccccc2)(c2ccccc2)c2ccccc2)=C([C@H]2CC[C@H](c3ccc(Cl)cc3)CC2)C(=O)c2ccccc21.[Br-] [Mito-PEG2-ATO] 6.12

// returns reported pIC50 for input O=C1C(OCCOCCOCCOCC[P+](c2ccccc2)(c2ccccc2)c2ccccc2)=C([C@H]2CC[C@H](c3ccc(Cl)cc3)CC2)C(=O)c2ccccc21.[Br-] [Mito-PEG4-ATO] 6.59

----------
# TGT: mitochondrial complex III (MiaPaCa-2 cells) (Homo sapiens, UniProt P00156)
# ASSAY_METHOD_TEXT: Complex III-dependent oxygen consumption in permeabilized cells, Seahorse XF-96
# CONDITION_CONTEXT: MiaPaCa-2 cells; 24 h treatment; antimycin A-inhibitable OCR; read-out: IC50, complex III-induced oxygen consumption (Complex III activity)
MEASURE: IC50 (nM)
Report as a plain number; the unit nM is understood.

Sample answers from the record:
{"columns": ["MOLECULE", "TGT", "IC50, nM"],
 "data": [
  ["O=C1C(OCCOCC[P+](c2ccccc2)(c2ccccc2)c2ccccc2)=C([C@H]2CC[C@H](c3ccc(Cl)cc3)CC2)C(=O)c2ccccc21.[Br-] [Mito-PEG2-ATO]", "mitochondrial complex III (MiaPaCa-2 cells) (Homo sapiens, UniProt P00156)", 1200],
  ["O=C1C(OCCOCCOCCOCCOCC[P+](c2ccccc2)(c2ccccc2)c2ccccc2)=C([C@H]2CC[C@H](c3ccc(Cl)cc3)CC2)C(=O)c2ccccc21.[Br-] [Mito-PEG5-ATO]", "mitochondrial complex III (MiaPaCa-2 cells) (Homo sapiens, UniProt P00156)", 390]
]}

Here is another molecule to look at.
// returns reported IC50 for input O=C1C(OCCOCCOCCOCC[P+](c2ccccc2)(c2ccccc2)c2ccccc2)=C([C@H]2CC[C@H](c3ccc(Cl)cc3)CC2)C(=O)c2ccccc21.[Br-] [Mito-PEG4-ATO] 1700
